Each recorded value in this set is attributed to paper PMC6429183.

Molecular target: UniProt P11474
Assay: ERR reporter (luciferase) antagonist qHTS assay, ERR-HEK293
Conditions: in words
Assay Metric: activity in the ERR assay

>>> recorded_value("COc1ccc2cc3[n+](cc2c1OC)CCc1cc2c(cc1-3)OCO2")
"potent antagonists"
>>> recorded_value("CC(C)(C)c1ccc(CSc2cnn(C(C)(C)C)c(=O)c2Cl)cc1")
"potent antagonists"
>>> recorded_value("C=C(C)[C@H]1Cc2c(ccc3c2O[C@@H]2COc4cc(OC)c(OC)cc4[C@@H]2C3=O)O1")
"potent antagonists"

###

Listed next: entries and their corresponding pEC50.
Target: estrogen-related receptor alpha (ERRα) (Homo sapiens)
Sequence (P11474 whole entry): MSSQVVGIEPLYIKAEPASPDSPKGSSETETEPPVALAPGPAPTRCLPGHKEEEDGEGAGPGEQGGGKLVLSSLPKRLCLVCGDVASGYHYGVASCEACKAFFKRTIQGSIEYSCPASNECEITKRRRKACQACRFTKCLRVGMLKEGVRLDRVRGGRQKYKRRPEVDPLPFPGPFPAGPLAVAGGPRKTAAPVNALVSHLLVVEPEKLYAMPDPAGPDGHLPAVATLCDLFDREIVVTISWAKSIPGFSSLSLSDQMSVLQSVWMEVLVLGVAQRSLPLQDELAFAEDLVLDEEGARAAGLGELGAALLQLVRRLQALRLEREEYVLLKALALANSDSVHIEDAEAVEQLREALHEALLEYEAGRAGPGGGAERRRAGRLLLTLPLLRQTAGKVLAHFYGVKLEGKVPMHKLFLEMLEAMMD
Assay: ERR reporter (luciferase) antagonist qHTS assay, ERR-HEK293
Settings: potency, ERR antagonist assay, primary screen
pEC50: −log10 of the molar value.
Assay Metric: pEC50

>>> recorded_value("Cc1nn(C)c(Oc2ccccc2)c1C=NOCc1ccc(C(=O)OC(C)(C)C)cc1 [Fenpyroximate]")
8.35
>>> recorded_value("CC(C)C[C@H](NC(=O)[C@H](CCc1ccccc1)NC(=O)CN1CCOCC1)C(=O)N[C@@H](Cc1ccccc1)C(=O)N[C@@H](CC(C)C)C(=O)[C@@]1(C)CO1")
7.26
